// reported growth inhibition per item
Assay: OD615 S. cerevisiae growth inhibition, permissive medium, pilot counter-assay, permissive growth control for S. cerevisiae lifespan shortening project (AID 705)
Conditions: OD615, 24 h, at 10 µM, stronger effect = higher value
The source made the active and inactive calls.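 The calls were made as follows: active = growth inhibition above 25% in both replicates, a cutoff set 3 SD above the mean; inconclusive = above 25% in only one replicate; inactive = the rest.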

[
  {
    "compound": "CC(=O)c1coc2ccc(OCCN3CCCCC3)cc12",
    "growth inhibition": "-8.68% (inactive)"
  },
  {
    "compound": "Cc1cccc2sc(NC(=O)CCNS(=O)(=O)c3cccc4nonc34)nc12",
    "growth inhibition": "-11.1% (inactive)"
  },
  {
    "compound": "O=C(c1coc2ccccc2c1=O)N1CCN(c2cccc(C(F)(F)F)c2)CC1",
    "growth inhibition": "-20% (inactive)"
  },
  {
    "compound": "N#CC1=C(SCc2ccccc2)NC(=O)CC1c1ccc(O)cc1 (stereo unspecified)",
    "growth inhibition": "-12.2% (inactive)"
  },
  {
    "compound": "COc1cccc(CN2C(=O)CCC2(C)C(=O)NC2CCCCC2)c1 (stereo unspecified)",
    "growth inhibition": "-6.64% (inactive)"
  },
  {
    "compound": "CC1(C)CC(=O)C(C=NCCCN2CCOCC2)=C(O)C1",
    "growth inhibition": "-0.685% (inactive)"
  },
  {
    "compound": "C(#Cc1ccc(C#CCN2CCOCC2)cc1)CN1CCOCC1",
    "growth inhibition": "-17.1% (inactive)"
  },
  {
    "compound": "COc1ccc(Cl)cc1C(=O)NCC(C)C",
    "growth inhibition": "6.51% (inactive)"
  },
  {
    "compound": "CCCCOCCCNC(=O)Cc1cccs1",
    "growth inhibition": "-16.7% (inactive)"
  },
  {
    "compound": "CN(C)S(=O)(=O)c1ccc(C(=O)Nc2ccc(OCC(=O)N3CCOCC3)cc2)cc1",
    "growth inhibition": "0.98% (inactive)"
  },
  {
    "compound": "CCCCNC(=O)CS(=O)Cc1nc(-c2ccc(C)cc2)oc1C (stereo unspecified)",
    "growth inhibition": "-7.66% (inactive)"
  },
  {
    "compound": "Cc1ccc(C)c(N2CCN(CC(=O)Nc3ccc4[nH]c(=O)[nH]c4c3)CC2)c1",
    "growth inhibition": "-13.7% (inactive)"
  },
  {
    "compound": "CCNS(=O)(=O)c1ccc(NC(=O)c2cccnc2)cc1",
    "growth inhibition": "1.24% (inactive)"
  },
  {
    "compound": "CCN(CC)C(=O)C1CCN(S(=O)(=O)c2ccc(C3CNC(=O)C3)cc2)CC1 (stereo unspecified)",
    "growth inhibition": "3.76% (inactive)"
  },
  {
    "compound": "CCCn1c(=S)[nH]c2cc(C(=O)NCC3CCCO3)ccc2c1=O (stereo unspecified)",
    "growth inhibition": "-1.52% (inactive)"
  },
  {
    "compound": "c1ccc(CSc2nnc(-c3ccco3)n2Cc2ccco2)cc1",
    "growth inhibition": "-5.04% (inactive)"
  },
  {
    "compound": "CCN(CC)C(=O)CSc1ccccc1N",
    "growth inhibition": "-16.2% (inactive)"
  },
  {
    "compound": "COC(=O)C1=CN(C)C=C(C(=O)OC)C1c1ccsc1",
    "growth inhibition": "-5% (inactive)"
  },
  {
    "compound": "O=C(O)c1ccccc1SC1CC(=O)N(C2CCCCC2)C1=O (stereo unspecified)",
    "growth inhibition": "-14.3% (inactive)"
  },
  {
    "compound": "Cc1csc2nc(CNC(=O)CCC(=O)O)cn12",
    "growth inhibition": "-8.41% (inactive)"
  },
  {
    "compound": "CC(=O)c1cccc(NC2c3ccccc3C(=O)N2Cc2ccc3c(c2)OCO3)c1 (stereo unspecified)",
    "growth inhibition": "-2.94% (inactive)"
  },
  {
    "compound": "Cc1ccc(S(=O)(=O)Nc2ccc3nc(N)sc3c2)cc1",
    "growth inhibition": "6.55% (inactive)"
  },
  {
    "compound": "CCCCC(=O)Nc1ccc2c(c1)C(=O)NC2=O",
    "growth inhibition": "-2.94% (inactive)"
  },
  {
    "compound": "COC(=O)c1c(C)oc2ccc(OC(=O)c3cccs3)cc12",
    "growth inhibition": "4.65% (inactive)"
  },
  {
    "compound": "Cc1ccc(CNC(=O)CCS(=O)(=O)c2cccc3nsnc23)cc1",
    "growth inhibition": "-2.81% (inactive)"
  },
  {
    "compound": "COc1ccc(NC(=O)CCCC2=NS(=O)(=O)c3ccccc3N2)cc1",
    "growth inhibition": "-8.46% (inactive)"
  },
  {
    "compound": "CCC(=O)N/C(=N/c1nc(C)cc(C)n1)Nc1cccc(OC)c1",
    "growth inhibition": "-5.62% (inactive)"
  },
  {
    "compound": "COc1ccc(C(=O)N2CCN(c3ccc(C)c(C)c3)CC2)cc1OC",
    "growth inhibition": "-6.27% (inactive)"
  },
  {
    "compound": "CN(CCNC(=O)C1(O)c2ccccc2NC(=O)N1c1ccccc1)Cc1ccccc1 (stereo unspecified)",
    "growth inhibition": "-15.6% (inactive)"
  },
  {
    "compound": "Cc1ccc(-c2nc(CS(=O)(=O)CC(=O)N3CCCCCC3)c(C)o2)cc1",
    "growth inhibition": "-2.76% (inactive)"
  },
  {
    "compound": "COc1cc(C2C(C(=O)OC(C)C)=C(C)Nc3ncnn32)cc(OC)c1OC (stereo unspecified)",
    "growth inhibition": "-8.66% (inactive)"
  },
  {
    "compound": "Cn1c(SCC(=O)NCC2CCCO2)nc2c([nH]c3ccccc32)c1=O (stereo unspecified)",
    "growth inhibition": "2.66% (inactive)"
  },
  {
    "compound": "CCC(Sc1nncn1C)C(=O)Nc1nnc(-c2ccccc2Cl)s1 (stereo unspecified)",
    "growth inhibition": "-3.46% (inactive)"
  },
  {
    "compound": "COCc1cc(=O)n2c(-c3ccc(C)cc3)n[nH]c2n1",
    "growth inhibition": "-9.25% (inactive)"
  },
  {
    "compound": "CC1(C)CC(=O)C=C(NCCc2ccc(S(N)(=O)=O)cc2)C1",
    "growth inhibition": "-8.44% (inactive)"
  },
  {
    "compound": "O=C(OCC(=O)N1CCN(C(=O)c2ccco2)CC1)c1sc2ccccc2c1Cl",
    "growth inhibition": "-14.3% (inactive)"
  },
  {
    "compound": "CC1(C)CC(=O)c2c(Cc3ccccc3)n[nH]c2C1",
    "growth inhibition": "0.375% (inactive)"
  },
  {
    "compound": "CC(=O)NC(CCS(C)(=O)=O)C(=O)Nc1cc(Cl)ccc1Cl (stereo unspecified)",
    "growth inhibition": "-14.6% (inactive)"
  },
  {
    "compound": "CC(=O)Nc1ccc(NC(=O)c2ccco2)cc1",
    "growth inhibition": "-9.41% (inactive)"
  },
  {
    "compound": "COc1ccc(N2CSC3=C(C#N)C(c4cc(OC)ccc4OC)CC(=O)N3C2)c(OC)c1 (stereo unspecified)",
    "growth inhibition": "-1.38% (inactive)"
  },
  {
    "compound": "CCN1CCN(c2ncnc3c2sc(=S)n3-c2ccccc2)CC1",
    "growth inhibition": "8.5% (inactive)"
  },
  {
    "compound": "C=C(C)Cn1c(C2CC(=O)N(Cc3ccccc3)C2)nc2ccccc21 (stereo unspecified)",
    "growth inhibition": "-0.245% (inactive)"
  },
  {
    "compound": "CN(CCNC(=O)C1CC(=O)N(C2CCCC2)C1)Cc1ccccc1 (stereo unspecified)",
    "growth inhibition": "-2.86% (inactive)"
  },
  {
    "compound": "O=C(CCn1c(=O)oc2ccccc21)NCc1ccc2c(c1)OCO2",
    "growth inhibition": "-11.4% (inactive)"
  },
  {
    "compound": "CC1CCN(S(=O)(=O)c2ccc3c(c2)oc(=O)n3CC(=O)N2c3ccccc3CC2C)CC1 (stereo unspecified)",
    "growth inhibition": "-4.77% (inactive)"
  },
  {
    "compound": "COc1ccc(C(=O)Nc2ccccc2C(=O)NCCCn2ccnc2)cc1",
    "growth inhibition": "-1.82% (inactive)"
  }
]

Values compiled from PubChem BioAssay.
